# Test target: T1, serum purified human Complement Factor D (human, UniProt P00746 26-253)
# T1 construct: Serum purified protein flowed over the captured antibodies; also called CFD; human CFD
# T1 sequence (P00746 26-253): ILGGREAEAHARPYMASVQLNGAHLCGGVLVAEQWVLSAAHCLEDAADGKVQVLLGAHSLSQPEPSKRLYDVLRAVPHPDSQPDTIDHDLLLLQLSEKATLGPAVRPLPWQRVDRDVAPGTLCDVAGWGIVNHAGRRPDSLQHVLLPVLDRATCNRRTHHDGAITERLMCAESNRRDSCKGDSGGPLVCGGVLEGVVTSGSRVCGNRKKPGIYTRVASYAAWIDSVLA
# Assay overview: SPR Biacore, antibody on protein A chip, single cycle kinetics, 25 C;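 note: antibodies captured to roughly 70 RU on the protein A surface in HBS-EP+ running buffer, with kinetic constants derived by BIAevaluation fitting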
Readout type: koff

>>> reported_result("31S34I54I59D / 32W60W101V (antibody, V domains shown, KCD119 TAF variant; full antibody captured on protein A) VH: EVQLVESGGGLVQPGGSLRLSCAASGYTFTSYYINWVRQAPGKGLEWIGDINPITGDTDYNADFKRRFTFSLDTSKSTAYLQMNSLRAEDTAVYYCTREGPSFAYWGQGTLVTVSS VL: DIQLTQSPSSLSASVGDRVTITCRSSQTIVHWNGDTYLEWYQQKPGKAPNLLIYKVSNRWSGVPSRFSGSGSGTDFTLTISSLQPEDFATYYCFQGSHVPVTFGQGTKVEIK")
"5.69e-05 s⁻¹"
>>> reported_result("31S54V59D / 54R101V (antibody, V domains shown, KCD119 TAF variant) VH: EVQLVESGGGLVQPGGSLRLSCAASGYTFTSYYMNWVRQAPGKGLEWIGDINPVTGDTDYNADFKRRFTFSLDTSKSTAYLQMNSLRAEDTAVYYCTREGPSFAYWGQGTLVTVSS VL: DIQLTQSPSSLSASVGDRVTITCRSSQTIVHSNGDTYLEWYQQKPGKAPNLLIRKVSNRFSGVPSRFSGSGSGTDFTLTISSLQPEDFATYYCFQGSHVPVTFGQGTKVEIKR")
"5.48e-05 s⁻¹"
>>> reported_result("28H31S54V59D / 101V (antibody, V domains shown, KCD119 TAF variant; full antibody captured on protein A) VH: EVQLVESGGGLVQPGGSLRLSCAASGYHFTSYYMNWVRQAPGKGLEWIGDINPVTGDTDYNADFKRRFTFSLDTSKSTAYLQMNSLRAEDTAVYYCTREGPSFAYWGQGTLVTVSS VL: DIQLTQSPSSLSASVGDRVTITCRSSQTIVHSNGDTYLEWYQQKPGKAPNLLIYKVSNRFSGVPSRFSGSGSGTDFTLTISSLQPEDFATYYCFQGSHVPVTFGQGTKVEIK")
"0.000167 s⁻¹"
